Assay: small-molecule binders of probe aNOTCH2, primary screen, biochemical, small-molecule microarray, 635/667 nm fluorescence (AID 1121);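 further: score merges feature fluorescence read at 667 nm with its signal to noise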
Conditions: higher = more signal
Kindly supply the reported composite z-score values for the records listed here.
Numbers only.

[[record]]
compound = "C#CCN(C(=O)OC(C)(C)C)[C@H](CO)c1ccccc1"
reported_result = -0.146

[[record]]
compound = "O=C(NCC(F)(F)F)[C@@H]1c2ccccc2C(=O)N(Cc2cc(C(F)(F)F)cc(C(F)(F)F)c2)[C@H]1c1ccc(CO)cc1"
reported_result = -0.0984

[[record]]
compound = "COCCCNC(=O)[C@@]1(Cc2ccccc2I)c2ccccc2C(=O)N(C2CCCCC2)[C@H]1c1ccc(CO)cc1"
reported_result = -0.112

[[record]]
compound = "C=CC[C@H](OC(=O)Nc1ccc(SC)cc1)c1ccc(O)c(F)c1"
reported_result = -0.168

[[record]]
compound = "C[C@]1(C(=O)NC2CC2)c2ccccc2C(=O)N(Cc2cc(F)cc(C(F)(F)F)c2)[C@H]1c1ccc(CO)cc1"
reported_result = -0.164

[[record]]
compound = "O=C1OCCC/C=C\\[C@H]2OC34C=CCN(Cc5ccccc5)C(=O)[C@H]3N(CCO)C(=O)[C@@H]4C12 (some centres undefined)"
reported_result = -0.0658

[[record]]
compound = "COCCCNC(=O)[C@@]1(Cc2ccccc2I)c2ccccc2C(=O)N(Cc2ccccc2C(F)(F)F)[C@H]1c1ccc(CO)cc1"
reported_result = -0.148

[[record]]
compound = "O=C1O[C@H](c2ccccc2)[C@H](c2ccccc2)N2[C@H]1[C@@H](C(=O)Nc1nc3ccccc3s1)[C@]1(C(=O)Nc3ccccc31)[C@H]2c1ccccc1OCCO"
reported_result = -0.014


// for each compound in input: emit composite z-score
1. COCCOC(=O)N1C(=O)[C@@]2(c3cc(C#CC4(O)CCCCCC4)ccc31)[C@H](C(N)=O)[C@H]1C(=O)O[C@H](c3ccccc3)[C@H](c3ccccc3)N1[C@@H]2c1ccc(OCCO)cc1
2. CCCCCN1CC=CC23O[C@@H]4/C=C\CCCOC(=O)C4[C@H]2C(=O)N(CCCCCO)[C@@H]3C1=O (some centres undefined)
3. CC(C)(C)OC(=O)CC[C@@]1(C(N)=O)N=C(c2ccc(OCCCO)cc2)O[C@@H]1c1ccccc1CN=[N+]=[N-]
4. COC(=O)C(CC#Cc1ccc2c(c1)[C@]1(C(=O)N2)[C@H](c2ccccc2OCCO)N2[C@H](c3ccccc3)[C@H](c3ccccc3)OC(=O)[C@H]2[C@@H]1C(=O)N1CCN(c2ncccn2)CC1)C(=O)OC

1: -0.118; 2: -0.182; 3: 0.27; 4: -0.132

Would you mind giving composite z-score for every compound in the list below?
1. C=C(COC)C(=O)CC[C@@H](OC(=O)c1ccccc1-c1ccccc1C(=O)O)c1ccccc1OCCO
2. C=CCOC(=O)[C@H]1[C@@H]2C(=O)O[C@@H](c3ccccc3)[C@@H](c3ccccc3)N2[C@@H](c2ccc(OCCOC(=O)[C@@H]3C[C@@H]4C(=O)N[C@@H](Cc5ccccc5)C(=O)N4[C@@H]3c3ccc(O)cc3)cc2)[C@]12C(=O)Nc1ccc(I)cc12

-0.0174
-0.092
